target-entity: HIV-1 92BR020 Env (HIV-1 strain 92BR020)
assay-details: cell-based or functional assay
quantity: IC50 neutralization, 18 hour virus/Ab incubation

1496_C09 (PG9) (TCN-109) (antibody, V domains shown) VH: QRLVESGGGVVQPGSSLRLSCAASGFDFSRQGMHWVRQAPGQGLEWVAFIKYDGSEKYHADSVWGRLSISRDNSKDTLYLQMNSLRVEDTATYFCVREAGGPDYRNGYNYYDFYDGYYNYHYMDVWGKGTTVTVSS VL: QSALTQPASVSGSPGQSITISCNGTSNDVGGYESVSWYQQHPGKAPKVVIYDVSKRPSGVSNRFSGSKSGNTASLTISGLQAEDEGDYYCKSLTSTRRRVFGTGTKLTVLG	> 50 µg/mL

Sourced from patent US20160264649A1
